Assay: Lipophilicity, log D of the compound in Octanol and PBS buffer at pH 7.4 incubated for 24 hrs under shaking condition followed by incubation for 1 hr without shaking by LC-MS analysis
Type: physicochemical
metric: logD at 25 h

structure-string	endpoint-result
COc1cc(NC(C)=O)cc(Oc2ccnc3ccc(OC)cc23)c1	3.81

* * *

Assay: Kinetic solubility of the compound in HCl buffer at pH 2.2 measured after 72 hrs by LC-MS analysis
Assay type: physicochemical
Settings: read-out: Kinetic_solubility

structure-string	solubility kinetic at 72 h
COc1cc(NC(C)=O)cc(Oc2ccnc3ccc(OC)cc23)c1	> 190 µM

* * *

Experiment: Plasma concentration in BALB/c nude mouse xenografted with human HCT-116 cells administered as single dose and measured after 6 hrs by LC-MS/MS analysis
Type: ADME

structure-string	unit-abbreviation	concentration at 6 h
COc1cc(NC(C)=O)cc(Oc2ccnc3ccc(OC)cc23)c1	ng/mL	213

* * *

Each entry below lists one item and its recorded MEC value.
Molecular target: Aurora kinase B (Homo sapiens) (UniProt Q96GD4)
Sequence (Q96GD4 whole entry): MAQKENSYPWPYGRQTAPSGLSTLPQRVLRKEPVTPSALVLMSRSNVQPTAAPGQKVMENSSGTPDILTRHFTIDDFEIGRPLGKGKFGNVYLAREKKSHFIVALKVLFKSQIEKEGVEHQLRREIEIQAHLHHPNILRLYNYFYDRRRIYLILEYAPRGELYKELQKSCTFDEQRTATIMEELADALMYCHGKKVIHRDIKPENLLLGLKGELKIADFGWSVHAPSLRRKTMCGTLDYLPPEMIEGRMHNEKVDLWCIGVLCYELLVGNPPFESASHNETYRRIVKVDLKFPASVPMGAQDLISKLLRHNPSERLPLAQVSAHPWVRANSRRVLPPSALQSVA
Assay: Disruption of mitotic localization of AURKB in human RPE-MYC H2B-GFP cells assessed as induction of polyploidy by fluorescence high content cell imaging analysis
Type: cell-based
metric: MEC (µM)

structure-string	measured-on	bound-operator	endpoint-result
COc1ccc(Oc2ccnc3ccccc23)cc1	Aurora kinase B (Homo sapiens) (UniProt Q96GD4)	>	40
COc1cc(Oc2ccnc3cc(C(F)(F)F)ccc23)cc(-n2cccn2)c1	Aurora kinase B (Homo sapiens) (UniProt Q96GD4)	>	40
O=C(NC1CCCC1)c1cccc(Oc2ccnc3ccccc23)c1	Aurora kinase B (Homo sapiens) (UniProt Q96GD4)	>	40
COc1cc(Oc2ccnc3ccccc23)cc(C(=O)O)c1	Aurora kinase B (Homo sapiens) (UniProt Q96GD4)	>	40
COc1cc(NC(C)=O)cc(Oc2ccnc3ccccc23)c1	Aurora kinase B (Homo sapiens) (UniProt Q96GD4)	=	0.078
CNC(=O)c1cc(OC)cc(Oc2ccnc3ccccc23)c1	Aurora kinase B (Homo sapiens) (UniProt Q96GD4)	=	1.25
COc1cc(Oc2ccnc3cc(OC)c(OC)cc23)cc(-n2cccn2)c1	Aurora kinase B (Homo sapiens) (UniProt Q96GD4)	=	0.012

* * *

Each entry below lists one item and its recorded MEC value.
Molecular target: Aurora kinase B (Homo sapiens) (UniProt Q96GD4)
Assay: Disruption of mitotic localization of AURKB in human RPE-MYC H2B-GFP cells assessed as induction of mitotic arrest measured after 24 hrs by fluorescence high content cell imaging analysis
Assay type: cell-based
metric: MEC

structure-string	metric	endpoint-result
c1ccc(Oc2ccnc3ccccc23)cc1	MEC	> 40 µM
O=C(NC1CCCC1)c1cccc(Oc2ccnc3ccccc23)c1	MEC	> 40 µM
COc1cc(Oc2ccnc3ccccc23)cc(C(=O)O)c1	MEC	> 40 µM

* * *

Molecular target: UniProt:Q96GD4
Assay: Disruption of mitotic localization of AURKB in human RPE-MYC H2B-GFP cells assessed as induction of mitotic arrest measured after 24 hrs by fluorescence high content cell imaging analysis
Type: cell-based
Param threshold (20 µM) applies to MEC; output 1.0 when value >= threshold, 0.0 when value < threshold.

structure-string	class
COc1cc(Oc2ccnc3ccc(OC)cc23)cc(-n2cccn2)c1	0.0
COC(=O)c1ccc(Oc2ccnc3ccccc23)cc1	1.0
CNC(=O)c1cc(OC)cc(Oc2ccnc3ccccc23)c1	0.0
CC(=O)c1cccc(Oc2ccnc3ccccc23)c1	0.0
COC(=O)c1ccc(OC)c(Oc2ccnc3ccccc23)c1	0.0
